# Measured on: T1, human/cynomolgus monkey ROR1 protein (Acro Biosystems, Cat. No.: RO1-H522y) (human/cynomolgus monkey, UniProt Q01973 30-403)
# T1 construct: Bought SPR analyte
# Experiment summary: SPR (Biacore), antibody captured on anti-hIgG CM5 chip, ROR1 protein as analyte, method of Example 5
Reported metric: kon (M⁻¹ s⁻¹)
One number for each entry, in M⁻¹ s⁻¹.

(Q) Identify the reported kon for the following entry. hz137G11D10-2.1 (antibody, human IgG1, kappa, V domains shown, Humanized, human IgG1/kappa) VH: QVQLQESGPGLVKPSQTLSLTCTVSGYSITSDYAWNWIRQHPGKGLEWIGYITYSASTSYNPSLKSRVTISRDTSKNQFSLKLSSVTAADTAVYYCARGAGTYYFDYWGQGTLVTVSS VL: DIQMTQSPSSLSASVGDRVTITCITSTDIDEDMNWYQQKPGKAPKLLIYEDNSLRPGVPSRFSGSGYGTDFTLTISSLQPEDFATYYCLQTNNLPLTFGQGTKVEIKR
(A) 2.74e+06

(Q) Complete the entry with kon for hz135A2B10-1.3 (antibody, human IgG1, kappa, V domains shown, Humanized, human IgG1/kappa) VH: QVQLVESGGGLVQPGGSLRLSCAASGFAFSTYGMAWVRQAPGKRLEWVASIHKGGFSTYYPDNVKGRFTISRDNDKNSLYLQMNSLRAEDTAVYYCIRHDWDGAMDYWGQGTLVTVSS VL: DIQMTQSPSSLSASVGDRVTITCKASQDINSYLNWYQQKPGKAPKTLIYRANRLVDGVPSRFSGSGSGQDYTLTISSLQPEDFATYYCLQFDEFPYTFGQGTKVEIKR
(A) 985000

(Q) Respond only with kon recorded for hz137G11D10-2.2 (antibody, human IgG1, kappa, V domains shown, Humanized, human IgG1/kappa) VH: QVQLQESGPGLVKPSQTLSLTCTVSGYSITSDYAWNWIRQHPGKGLEWIGYITYSASTSYNPSLKSRVTISRDTSKNQFFLKLSSVTAADTAVYYCARGAGTYYFDYWGQGTLVTVSS VL: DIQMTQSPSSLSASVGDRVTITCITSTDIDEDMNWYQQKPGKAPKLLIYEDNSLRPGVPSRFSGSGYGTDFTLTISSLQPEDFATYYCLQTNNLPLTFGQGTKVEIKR
(A) 2.37e+06

(Q) Please list kon recorded for the binder hz135A2B10-1.1 (antibody, human IgG1, kappa, V domains shown, Humanized, human IgG1/kappa) VH: QVQLVESGGGLVQPGGSLRLSCAASGFAFSTYGMAWVRQAPGKGLEWVASIHKGGFSTYYPDNVKGRFTISRDNAKNSLYLQMNSLRAEDTAVYYCARHDWDGAMDYWGQGTLVTVSS VL: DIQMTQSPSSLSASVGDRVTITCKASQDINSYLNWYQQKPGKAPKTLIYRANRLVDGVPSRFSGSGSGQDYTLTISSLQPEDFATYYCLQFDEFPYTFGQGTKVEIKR
(A) 968000

(Q) Could you please provide reported kon for hz137G11D10-1.1 (antibody, human IgG1, kappa, V domains shown, Humanized, human IgG1/kappa) VH: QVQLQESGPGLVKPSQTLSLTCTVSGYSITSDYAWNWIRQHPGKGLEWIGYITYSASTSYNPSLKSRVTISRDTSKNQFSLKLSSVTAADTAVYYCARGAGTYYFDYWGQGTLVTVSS VL: ETTLTQSPAFMSATPGDKVNISCITSTDIDEDMNWYQQKPGEAAKLIISEDNSLRPGIPPRFSSSGYGTDFTLTINNIESEDAAYYFCLQTNNLPLTFGQGTKVEIKR ? Thanks!
(A) 3.72e+06

(Q) Please report kon for the following binder: hz135A2B10-1.2 (antibody, human IgG1, kappa, V domains shown, Humanized, human IgG1/kappa) VH: QVQLVESGGGLVQPGGSLRLSCAASGFAFSTYGMAWVRQAPGKGLEWVASIHKGGFSTYYPDNVKGRFTISRDNDKNSLYLQMNSLRAEDTAVYYCIRHDWDGAMDYWGQGTLVTVSS VL: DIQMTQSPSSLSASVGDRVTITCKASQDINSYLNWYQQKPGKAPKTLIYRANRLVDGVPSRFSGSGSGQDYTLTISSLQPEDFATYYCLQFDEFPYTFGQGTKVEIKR
(A) 1.05e+06

(Q) Look up and report measured kon for this entry: hz29H5D8-3.2 (antibody, human IgG1, kappa, V domains shown, Humanized, human IgG1/kappa) VH: QVQLVQSGAEVKKPGSSVKVSCKASGYTFTNYGISWVRQAPGQGLEWMGEIYPRSVNTYYSAKFKGRVTITADKSTSTAYMELSSLRSEDTAVYYCARHYYGSSLDYWGQGTLVTVSS VL: DIQMTQSPSSLSASVGDRVTITCITSSDIEDDMNWYQQKPGKAPKLLISEGNSLRPGVPSRFSSSGYGTDFTFTISSLQPEDIATYYCLQSDNIFTFGQGTKVEIKR
(A) 1.79e+06

More entries:
(Q) Assign kon to the following record: UC-961 (antibody, V domains shown) VH: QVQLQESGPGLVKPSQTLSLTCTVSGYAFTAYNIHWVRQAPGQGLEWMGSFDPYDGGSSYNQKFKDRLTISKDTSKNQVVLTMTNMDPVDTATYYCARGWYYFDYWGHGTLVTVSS VL: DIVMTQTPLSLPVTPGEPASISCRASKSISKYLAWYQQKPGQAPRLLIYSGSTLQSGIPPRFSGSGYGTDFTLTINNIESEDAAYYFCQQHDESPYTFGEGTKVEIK
(A) 1.54e+06
